Give measured TGI for each item. Keep answers brief.
- Tested on: MALME-3M melanoma
- measurement.protocol: NCI tumour cell line growth inhibition, 48 h
Write the value in µM as a bare number.

[Q] Item Fc1cc2[nH]ncc2c2c3c(c(-c4cn[nH]c4C(F)(F)F)nc12)CCCC3 with MALME-3M melanoma - TGI?
[A] 5.41

[Q] TGI of CCOc1cc(C2SCC(=O)N2c2ccc(Oc3ccc(Cl)cc3)c(Cl)c2)ccc1O (configuration not stated) on MALME-3M melanoma?
[A] 32.4

[Q] Find TGI (MALME-3M melanoma) for the entry CC(C)C1C(=O)N(c2c(F)c(F)c(F)c(F)c2F)C(=S)N1CCS(=O)c1ccccc1 (configuration not stated)
[A] 30.2

[Q] Lookup: TGI / MALME-3M melanoma / C/C(=N\NC(=S)N1CCCCC1)c1ccccn1
[A] 3.05

[Q] Value wanted: TGI (MALME-3M melanoma) of entry CC(=O)O[C@H]1C(=O)[C@@]2(C)C(C(OC(=O)c3ccccc3)[C@]3(O)C[C@H](OC(=O)C(OC(=O)CCCC(=O)NCCCN(C)C)C(NC(=O)c4ccccc4)c4ccccc4)C(C)=C1C3(C)C)C1(OC(C)=O)COC1C[C@@H]2O (some centres not stated)
[A] 20.8

[Q] Find TGI (MALME-3M melanoma) for the entry CCc1ccccc1N=NC(=O)NNc1ccccc1CC
[A] 32.7

[Q] For the record CC(C)(CN1CCCCC1)C(=O)/C=C/c1ccc(/C=C/C(=O)C(C)(C)CN2CCCCC2)cc1 , what value of TGI is listed for MALME-3M melanoma?
[A] 2.24

[Q] Request: TGI, test system MALME-3M melanoma, entry COC(=O)c1n[nH]c(C)c1N=NN(C)CCC#N
[A] 34.6

[Q] Short answer please: TGI, MALME-3M melanoma, entry CN(CCN1C(=O)c2cc([N+](=O)[O-])cc3cc([N+](=O)[O-])cc(c23)C1=O)CCN1C(=O)c2cc([N+](=O)[O-])cc3cc([N+](=O)[O-])cc(c23)C1=O
[A] 4.31

[Q] Item Cn1c(=O)[nH]c2nncnc2c1=O with MALME-3M melanoma - TGI?
[A] 119

[Q] Under MALME-3M melanoma: TGI value of CC(=O)OC1CC[C@@]2(C)C(=CC[C@@H]3[C@@H]2CC[C@]2(C)Nc4nn(S(C)(=O)=O)cc4C[C@@H]32)C1 (some centres not stated) ?
[A] 78.6

[Q] Form: Entry = O=c1cc(N=Nc2ccc(Br)cc2)[nH]c(=S)[nH]1 | System = MALME-3M melanoma | TGI = ____
[A] 30.8

[Q] For the record COC(=O)/C=C1\C(=O)N(C(C)=O)c2ccc(Br)cc21 , what value of TGI is listed for MALME-3M melanoma?
[A] 35.3

[Q] Report TGI for O=Nc1ccc(O)c(=O)cc1 tested on MALME-3M melanoma.
[A] 4.14

[Q] Provide value of TGI for this record tested with MALME-3M melanoma: COc1ccc(N=Nc2c(C)c(C#N)c(=S)n(C3OC(CO)C(O)C(O)C3O)c2-c2ccccc2)cc1 (configuration not stated)
[A] 63.1

[Q] Please state recorded TGI (tested on MALME-3M melanoma) of CCOC(=O)c1ccc(NC(=O)Nc2nncs2)cc1
[A] 36.1

[Q] Request - read-out TGI | tested on MALME-3M melanoma | compound Cc1c(Cl)cccc1NC(=O)C(=O)C(C(=O)c1ccccc1-c1ccccc1)C1OC(=O)c2ccccc21 (configuration not stated)
[A] 28.8

[Q] Report TGI for CN(C)CCCN1C(=S)N(CCCN(C)C)c2c3ccccc3nc3c([N+](=O)[O-])ccc1c23 tested on MALME-3M melanoma.
[A] 6.69
